pIC50: −log10 of the molar value.
# USP21 (Homo sapiens, UniProt Q9UK80): pIC50 values follow
# Sequence (Q9UK80 whole entry): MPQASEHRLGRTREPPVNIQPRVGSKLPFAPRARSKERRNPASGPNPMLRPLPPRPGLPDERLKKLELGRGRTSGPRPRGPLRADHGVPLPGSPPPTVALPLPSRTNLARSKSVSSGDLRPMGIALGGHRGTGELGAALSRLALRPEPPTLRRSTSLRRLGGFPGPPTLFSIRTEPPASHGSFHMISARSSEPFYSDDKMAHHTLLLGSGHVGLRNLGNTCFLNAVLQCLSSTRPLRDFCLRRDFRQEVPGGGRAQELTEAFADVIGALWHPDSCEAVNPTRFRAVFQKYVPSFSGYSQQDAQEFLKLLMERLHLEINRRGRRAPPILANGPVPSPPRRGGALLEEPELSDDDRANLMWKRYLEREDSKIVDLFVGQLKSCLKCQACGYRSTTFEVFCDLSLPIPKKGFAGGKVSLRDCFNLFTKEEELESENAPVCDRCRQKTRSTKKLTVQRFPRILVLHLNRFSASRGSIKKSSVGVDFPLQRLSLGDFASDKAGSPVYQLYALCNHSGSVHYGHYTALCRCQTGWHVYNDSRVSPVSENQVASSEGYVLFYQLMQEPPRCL

For orientation, consider the following solved cases.
molecule="CC(C)C(NC(=O)C1CCCC1)C(=O)Nc1nnc(Cc2ccc([N+](=O)[O-])cc2)s1 (stereo not shown) [Compound 3]" readout_value="< 4.60"
molecule="COC[C@@H](NC(=O)C1(C)CCCCC1)C(=O)Nc1sc(Cc2ccc(C#N)cc2)nc1C [Compound 13]" readout_value="< 4.60"
molecule="N#Cc1ccc(Cc2nnc(NC(=O)[C@H](NC(=O)C3(C(F)(F)F)CCCCC3)C3CCCC3)s2)cc1 [Compound 20]" readout_value=8.10

Please examine the following record next.
GET /values?readout=pIC50&system=USP21 (Homo sapiens, UniProt Q9UK80)&item= COCC(NC(=O)C(C)C)C(=O)Nc1nnc(Cc2ccc([N+](=O)[O-])cc2)s1 (stereo not shown) [Compound 6]
< 4.60

---

// reported solubility at 24 h for each item listed
Assay: Aqueous solubility
Type: physicochemical
Conditions: PBS pH 6.5, pH 6.5, PBS pH 6.5
Respond numerically; units are µM and should not be typed.

For orientation, consider the following solved cases.
compound=N#Cc1ccc(Cc2nnc(NC(=O)[C@H](NC(=O)C3(C(F)(F)F)CCCCC3)C3CCCC3)s2)cc1 measured_property="solubility at 24 h" unit_symbol=µM readout_value=1.33
compound=COC[C@@H](NC(=O)C1(OC)CCCCC1)C(=O)Nc1nnc(Cc2ccc(C#N)cc2)s1 measured_property="solubility at 24 h" unit_symbol=µM readout_value=181
compound=COC[C@@H](NC(=O)C1(C(F)F)CCCCC1)C(=O)Nc1nnc(Cc2ccc(C#N)cc2)s1 measured_property="solubility at 24 h" unit_symbol=µM readout_value=131
compound=N#Cc1ccc(Cc2nnc(NC(=O)[C@@H](CO)NC(=O)C3(C(F)(F)F)CCCCC3)s2)cc1 measured_property="solubility at 24 h" unit_symbol=µM readout_value=91.2
compound=CC(C)(O)[C@@H](NC(=O)C1(C(F)(F)F)CCCCC1)C(=O)Nc1nnc(Cc2ccc(C#N)cc2)s1 measured_property="solubility at 24 h" unit_symbol=µM readout_value=80.2
compound=COC[C@@H](NC(=O)C1(C(F)(F)F)CCCCC1)C(=O)Nc1nnc(Cc2ccc(C#N)cc2)s1 measured_property="solubility at 24 h" unit_symbol=µM readout_value=10.4
compound=CCC1(C(=O)N[C@H](COC)C(=O)Nc2nnc(Cc3ccc(C#N)cc3)s2)CCCCC1 measured_property="solubility at 24 h" unit_symbol=µM readout_value=71
compound=COC[C@@H](NC(=O)C1(C)CCCCC1)C(=O)Nc1nnc(Cc2ccc(C#N)cc2)s1 measured_property="solubility at 24 h" unit_symbol=µM readout_value=126

Please examine the following record next.
Which measured solubility at 24 h value corresponds to COC[C@@H](NC(=O)C1(C)CCCCC1)C(=O)Nc1nc(C)c(Cc2ccc(C#N)cc2)s1 ?
19.4

---

Experiment: log D measurement (HPLC)
Assay type: physicochemical
Conditions: reverse-phase HPLC, pH 7.5, pH 7.5, HPLC method; read-out: logD7.5
// reported chromatographic logD for each item listed
# output: bare number, no unit

For orientation, consider the following solved cases.
molecule="N#Cc1ccc(Cc2nnc(NC(=O)[C@@H](CO)NC(=O)C3(C(F)(F)F)CCCCC3)s2)cc1 [Compound 18]" readout_value=2.5
molecule="COCC(NC(=O)C1CCCCC1)C(=O)Nc1nnc(Cc2ccc([N+](=O)[O-])cc2)s1 (stereo not shown) [Compound 7]" readout_value=2.6
molecule="CC(C)C(NC(=O)C1CCCC1)C(=O)Nc1nnc(Cc2ccc([N+](=O)[O-])cc2)s1 (stereo not shown) [Compound 3]" readout_value=2.8
molecule="COCC(NC(=O)C1(C)CCCCC1)C(=O)Nc1nnc(Cc2ccc([N+](=O)[O-])cc2)s1 (stereo not shown) [Compound 9]" readout_value=2.9
molecule="CCC1(C(=O)N[C@H](COC)C(=O)Nc2nnc(Cc3ccc(C#N)cc3)s2)CCCCC1 [Compound 14]" readout_value=2.95

Which measured chromatographic logD value corresponds to COCC(NC(=O)C1CCCC1)C(=O)Nc1nnc(Cc2ccc([N+](=O)[O-])cc2)s1 (stereo not shown) [Compound 4] ?
2.4

Which measured chromatographic logD value corresponds to COC[C@@H](NC(=O)C1(C(F)(F)F)CCCCC1)C(=O)Nc1nnc(Cc2ccc(C#N)cc2)s1 [Compound 17] ?
2.95

// data source = paper PMC10009755
